Numbers sourced from patent US9850218B2.

Test system: 661W or C6 cells
Assay: XF FCCP-uncoupled oxygen consumption rate assay (IBMX treatment)
Assay type: cell-based
Details: 1 uM compound, 1 h pretreatment; 600 μM IBMX, 24 h; read-out: XF FCCP OCR (% Ctrl, concentration)
MEASURE: activity at 1 µM (%)
// note: answer is a bare numeric in %

Per the reported 661W or C6 cells data, COCCN(C)C(=O)c1sc(-c2ccccc2)nc1-c1ccccc1 [Example 6] has activity at 1 µM of 81

Lab entry: 661W or C6 cells assay, compound O=C(O)c1sc(-c2ccccn2)nc1-c1ccccc1 [Example 11] , activity at 1 µM = 76

###

Test system: 661W or C6 cells
Assay: XF FCCP-uncoupled oxygen consumption rate assay (IBMX treatment)
Assay type: cell-based
Conditions: 1 uM compound, 1 h pretreatment; 600 μM IBMX, 24 h; read-out: XF FCCP OCR (% Ctrl, concentration)
Listing of recorded activity at 1 µM by entry.
Numbers only here, please. The scale is %.

Field: example entries. Status: answers known.
[[record]]
compound_string = "CCOC(=O)c1sc(-c2ccc(OC)cc2)nc1-c1ccccc1"
measure = "activity at 1 µM"
unit_descriptor = "%"
readout_number = 82

[[record]]
compound_string = "O=C(Nc1ccc(F)cc1)c1sc(-c2ccccc2)nc1-c1ccccc1"
measure = "activity at 1 µM"
unit_descriptor = "%"
readout_number = 83

[[record]]
compound_string = "O=C(Nc1ccccc1Nc1ccccc1)c1sc(-c2ccccn2)nc1-c1ccccc1"
measure = "activity at 1 µM"
unit_descriptor = "%"
readout_number = 71

[[record]]
compound_string = "CCOC(=O)c1sc(-c2ccccn2)nc1-c1ccccc1"
measure = "activity at 1 µM"
unit_descriptor = "%"
readout_number = 75


// below: activity at 1 µM requested for another compound
"O=C(O)c1sc(-c2ccccc2)nc1-c1ccccc1" yielded activity at 1 µM of 77

###

System: 661W or C6 cells
Assay: XF FCCP-uncoupled oxygen consumption rate assay (IBMX treatment)
Type: cell-based
Conditions: 1 uM compound, 1 h pretreatment; 600 μM IBMX, 24 h; read-out: XF FCCP OCR (% Ctrl, concentration)
Catalogue of activity at 1 µM values
Use % as the unit, but write only the number.

Data point: O=C(Nc1ccccc1)c1sc(-c2ccccc2)nc1-c1ccccc1 [Example 3, N,2,4-Triphenylthiazole-5-carboxamide] ; activity at 1 µM = 72

Briefly, activity at 1 µM measured for COc1ccc(NC(=O)c2sc(-c3ccccc3)nc2-c2ccccc2)cc1 [Example 8] : 73

compound CCOC(=O)c1sc(-c2ccccc2)nc1-c1ccccc1 [Example 1, Ethyl 2,4-diphenylthiazole-5-carboxylate] , activity at 1 µM observed: 71

// recorded activity at 1 µM for CCOC(=O)c1sc(-c2ccncc2)nc1-c1ccccc1 [Example 10] : 70
